TARGET_UNDER_TEST: RET wt (Homo sapiens)
Construct: purchased Carna 08-159
Sequence (P07949 29-1114): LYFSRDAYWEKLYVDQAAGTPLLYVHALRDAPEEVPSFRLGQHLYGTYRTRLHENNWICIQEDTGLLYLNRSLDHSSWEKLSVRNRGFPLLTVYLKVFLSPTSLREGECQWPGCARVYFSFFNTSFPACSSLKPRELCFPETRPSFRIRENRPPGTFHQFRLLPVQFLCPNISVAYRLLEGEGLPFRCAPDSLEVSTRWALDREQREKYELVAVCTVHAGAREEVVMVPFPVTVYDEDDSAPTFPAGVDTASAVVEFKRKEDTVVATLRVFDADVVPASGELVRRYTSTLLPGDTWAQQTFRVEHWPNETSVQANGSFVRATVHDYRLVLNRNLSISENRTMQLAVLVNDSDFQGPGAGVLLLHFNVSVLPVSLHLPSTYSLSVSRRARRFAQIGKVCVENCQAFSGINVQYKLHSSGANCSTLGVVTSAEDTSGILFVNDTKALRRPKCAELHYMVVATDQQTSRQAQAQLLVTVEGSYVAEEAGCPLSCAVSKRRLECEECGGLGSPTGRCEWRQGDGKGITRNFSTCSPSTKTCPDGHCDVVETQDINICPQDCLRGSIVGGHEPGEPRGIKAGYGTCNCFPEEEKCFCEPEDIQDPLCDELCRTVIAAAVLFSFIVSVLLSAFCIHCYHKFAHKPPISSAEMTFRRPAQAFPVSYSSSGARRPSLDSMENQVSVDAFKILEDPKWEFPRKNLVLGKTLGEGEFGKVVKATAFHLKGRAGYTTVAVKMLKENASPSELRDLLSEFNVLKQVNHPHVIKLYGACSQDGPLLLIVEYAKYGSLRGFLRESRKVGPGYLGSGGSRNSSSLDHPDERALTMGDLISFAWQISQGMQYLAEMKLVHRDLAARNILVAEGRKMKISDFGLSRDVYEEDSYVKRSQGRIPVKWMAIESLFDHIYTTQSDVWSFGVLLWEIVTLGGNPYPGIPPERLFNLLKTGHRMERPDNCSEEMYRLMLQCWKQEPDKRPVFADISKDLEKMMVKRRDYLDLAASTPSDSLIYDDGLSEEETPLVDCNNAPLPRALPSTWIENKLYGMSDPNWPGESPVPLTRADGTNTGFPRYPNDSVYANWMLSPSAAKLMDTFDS
EXPERIMENT_NOTES: In vitro kinase activity assay (mobility shift assay), RET wild type
Type: biochemical
CONDITION_INFO: ATP 16 μM, reaction time 60 min
Can you tell me pIC50 for the items I'm about to list?
In textbook form, pIC50 equals minus log to base ten of the concentration in mol/L.

Quote pIC50 with test system RET wt (Homo sapiens) for O=C1N[C@H]2C[C@H](C2)Oc2ncc(F)cc2CNc2nc3c1cnn3cc2-c1ccccc1 [Compound 29]
7.70

Report pIC50 on RET wt (Homo sapiens) for this entry: C[C@H]1CN(C)C(=O)c2cnn3c(N)c(-c4ccccc4)c(nc23)NCc2cc(F)cnc2O1 [Example 75]
7.70

System RET wt (Homo sapiens). Read-out pIC50. Item COC(=O)NC1CC=C(c2cn3ncc4c3nc2NCc2cc(F)cnc2O[C@@H](C)CNC4=O)CC1 (some centres unmarked) [Compound 43] . Report value.
7.17

Output reported pIC50 of the molecule CC(C)Nc1ccc(-c2c3nc4c(cnn4c2N)C(=O)NC[C@H](C)Oc2ncc(F)cc2CN3)cc1 [Example 57] on RET wt (Homo sapiens).
7.33

Look up RET wt (Homo sapiens) data: pIC50 of COC(=O)Nc1ccc(-c2cn3ncc4c3nc2NCc2cc(F)cnc2O[C@@H](C)CNC4=O)cc1 [Compound 30] , then report it.
8.29

State measured pIC50 of the molecule C[C@H]1CNC(=O)c2cnn3cc(-c4ccc(F)cc4)c(nc23)NCc2cc(F)cnc2O1 [Compound 8] with RET wt (Homo sapiens).
7.89

Determine reported pIC50 for C[C@H]1CNC(=O)c2cnn3cc(-c4ccc(Cl)cc4Cl)c(nc23)NCc2cc(F)cnc2O1 [Compound 21] ; test system: RET wt (Homo sapiens).
8.23

====

// pIC50 collected for UniProt P07949
Answer as the number alone; pIC50 is minus log10 of concentration in mol/L.

Provide pIC50 value for the following compound: Cc1cccc(-c2cn3ncc4c3nc2NCc2cc(F)cnc2O[C@@H](C)CNC4=O)c1
7.44

Give a short answer stating reported pIC50 for CCOC(=O)Nc1ccc(-c2c3nc4c(cnn4c2N)C(=O)NC[C@H](C)Oc2ncc(F)cc2CN3)cc1F .
9.06

Give the reported value of pIC50 for this record: CNC(=O)c1ccc(-c2cn3ncc4c3nc2NCc2cc(F)cnc2O[C@@H](C)CNC4=O)cc1
7.31

Report pIC50, nothing else, for this compound: C[C@H]1CNC(=O)c2cnn3cc(-c4ccc(Oc5ccccc5)cc4)c(nc23)NCc2cc(F)cnc2O1
6.84

Answer with the recorded pIC50 of C[C@H]1CNC(=O)c2cnn3cc(-c4cccc(F)c4)c(nc23)NCc2cc(F)cnc2O1 only.
8.00

Annotate the compound C[C@H]1CNC(=O)c2cnn3cc(-c4ccccc4C(F)(F)F)c(nc23)NCc2cc(F)cnc2O1 with its measured pIC50.
6.27

Name the recorded pIC50 of the compound listed here: CNC(=O)Nc1ccc(-c2cn3ncc4c3nc2NCc2cc(F)cnc2O[C@@H](C)CNC4=O)cc1
7.85

Dear colleague, please send me the reported pIC50 for CCNC(=O)Nc1ccc(-c2c3nc4c(cnn4c2N)C(=O)NC[C@H](C)Oc2ncc(F)cc2CN3)cc1 when you can.
9.22
